target-or-test-system: T1, human CD19 exon1-3-his protein (human, UniProt P15391 20-186, limits assumed)
T1 construct: made in HEK293E cells; also called membrane-distal end; not shown: His tag
T1 sequence (looked up): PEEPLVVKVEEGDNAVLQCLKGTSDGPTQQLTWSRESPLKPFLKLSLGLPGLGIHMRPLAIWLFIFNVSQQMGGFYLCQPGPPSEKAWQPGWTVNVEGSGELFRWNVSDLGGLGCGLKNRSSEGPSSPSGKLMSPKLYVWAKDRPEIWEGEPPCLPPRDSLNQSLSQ
test-name: ELISA, coated at 2 ug/mL
outcome-measure: binding result

[
  {
    "binder": "F3.121.4-L3H2 (antibody, mouse IgG1, kappa, V domains shown, murine IgG1 constant regions; also called humanized antibody of F3.121.4) VH: EVQLVQSGAEVKKPGASVKVSCKASGYTFTNYWMHWVRQAPGQGLEWMGEIDPSDNYANYNQEFQGRVTITVDKSASTAYMELSSLRSEDTAVYYCARHDGYFGALDYWGQGTTVTVSS VL: EIVLTQSPDFQSVTPKEKVTITCSASSSISSNYLHWYQQKPDQSPKFLIYRTSNLASGVPSRFSGSGSGTDFTLTINSLEAEDAATYYCQQASSIPRMFTFGQGTKLEIKR",
    "reported-value": "no binding"
  },
  {
    "binder": "F3.114.12 (antibody, human IgG1, V domains shown, human-murine chimeric antibody, human IgG1) VH: DVQLQESGPGLVKPSQSLSLTCSVTGYSITSGYDWNWIRQFPGNKLEWMGYISYDGKNNYNPSLRNRISITRDTSKNQFFLKLNSVTTEDTATYYCARRDLRGYFDVWGTGTTVTVSS VL: DIVLTQSPATLSVTPGDRVSLSCRASQSISNYLHWYQQKSHESPRLLIKYASLSISGIPSRFSGSGSGTDFTLSINSVETEDFGVYFCQQSNSWPLTFGAGTKLELK",
    "reported-value": "no binding"
  },
  {
    "binder": "F4.35.5 (antibody, human IgG1, V domains shown, human-murine chimeric antibody, human IgG1) VH: EIQLQQSGPELVKPGASVKVSCKASGYAFTSYNMYWVKQSHGKSLEWIGYIDPYNGDTRYNQKFKGKATLTVDKSSSTAYMHLNSLTSEDSAVYYCTRSGTGRDYWGQGTTLTVSS VL: QIVLTQSPAIMSASPGEKVTMTCSASSSISYMFWFQQKPGSSPRLLIYDTSSLASGVPVRFSGSGSGTSYTLTISRMEAEDAATYYCQQWSNYPYTFGGGTKLEMK",
    "reported-value": "no binding"
  }
]

Reference source: patent US20250042994A1
